# experiment summary: Determination of drug solubility
# Format: physicochemical
# assay setup: DMSO, organic solvent or mixture, thermodynamic from solid; read-out: Solubility DMSO
property: solubility

input: Item CCN[C@H]1C[C@H](C)S(=O)(=O)c2sc(S(=O)(=O)NC(=O)[C@H](C)OC(=O)[C@H](C)OC(=O)[C@H](C)OC(=O)[C@H](C)OC(=O)[C@H](C)OC(C)=O)cc21 [28-1, dorzolamide-acetyl PLA (n=5)] : provide solubility
output: > 50 mg/mL

input: Identify solubility associated with the compound CCN(CC)CCNC(=O)c1c(C)[nH]c(/C=C2\C(=O)Nc3ccc(OC(=O)CCCCC(=O)N(CC)[C@H]4CN(CCCOC)S(=O)(=O)c5sc(S(=O)(=O)NC(=O)[C@H](C)OC(=O)[C@H](C)OC(=O)[C@H](C)O)cc54)cc32)c1C [61-2]
output: > 50 mg/mL
